# system: Recombinant human PDK1 enzyme (aa 52-556) (Homo sapiens (Human))
# Sequence (O15530 52-556): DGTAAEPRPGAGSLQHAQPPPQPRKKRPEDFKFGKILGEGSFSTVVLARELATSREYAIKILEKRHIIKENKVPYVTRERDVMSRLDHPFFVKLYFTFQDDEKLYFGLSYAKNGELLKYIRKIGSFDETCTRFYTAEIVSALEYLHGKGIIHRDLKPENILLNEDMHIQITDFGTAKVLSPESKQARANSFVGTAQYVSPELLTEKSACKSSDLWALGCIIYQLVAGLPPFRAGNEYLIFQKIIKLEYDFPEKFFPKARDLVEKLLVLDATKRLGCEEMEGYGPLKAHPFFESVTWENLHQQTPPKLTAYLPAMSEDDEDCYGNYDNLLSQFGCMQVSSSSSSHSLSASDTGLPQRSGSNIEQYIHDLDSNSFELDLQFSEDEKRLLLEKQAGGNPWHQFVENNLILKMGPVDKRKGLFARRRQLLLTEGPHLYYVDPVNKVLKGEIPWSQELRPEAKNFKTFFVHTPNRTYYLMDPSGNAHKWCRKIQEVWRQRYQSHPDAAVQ
# protocol-summary: PDK1 kinase assay
# conditions: in vitro kinase assay, His6-PDK1 (aa 52-556), PDKtide, P33-ATP
pIC50: −log10 of the molar value.

compound	pIC50
CN1CCCC(NC(=O)c2cnc3ccc(C#CCNC(=O)c4cncn(Cc5ccc(F)c(F)c5)c4=O)cc3c2)C1 (centres unmarked)	7.19
CC1(O)CCN(c2ncnc3ccc(C#CCNC(=O)c4cccn(Cc5ccc(F)c(F)c5)c4=O)cc23)CC1	7.21
CN1CCC(CNc2ncnc3ccc(C#CCNC(=O)c4cccn(Cc5ccc(F)c(F)c5)c4=O)cc23)C1 (centres unmarked)	7.01
CN(C)CCCNc1cnc2ccc(C#CCNC(=O)c3cncn(Cc4ccc(F)c(F)c4)c3=O)cc2n1	7.96
CNc1ncnc2cc(F)c(C#CCNC(=O)c3c(C)n(C)n(Cc4ccc(F)c(F)c4)c3=O)cc12	7.17
O=C(NCC#Cc1ccc2ncnc(N3CCNCC3)c2c1)c1cncn(Cc2ccc(F)c(F)c2)c1=O	6.35
CCN1CCC(CN(C)c2ncnc3ccc(C#CCNC(=O)c4cccn(Cc5ccc(F)c(F)c5)c4=O)cc23)C1 (centres unmarked)	6.93
CN(C)CCCOc1ccnc2ccc(C#CCNC(=O)c3cccn(Cc4ccc(F)c(F)c4)c3=O)cc12	7.92

====

# system: Recombinant human PDK1 enzyme (aa 52-556) (Homo sapiens (Human))
# protocol-summary: PDK1 kinase assay
# conditions: in vitro kinase assay, His6-PDK1 (aa 52-556), PDKtide, P33-ATP
pIC50: −log10 of the molar value.
readout-label: pIC50

1) COc1ccc(CN(C)c2ncnc3ccc(C#CCNC(=O)c4cccn(Cc5ccc(F)c(F)c5)c4=O)cc23)cc1 8.22
2) CN1CCC(Nc2cnc3ccc(C#CCNC(=O)c4cccn([C@H](CO)c5ccccc5)c4=O)cc3n2)CC1 8.10
3) CN1CC[C@@H](COc2ccnc3ccc(C#CCNC(=O)c4cccn(Cc5cc(F)c(F)c(F)c5)c4=O)cc23)C1 8.22

====

# system: Recombinant human PDK1 enzyme (aa 52-556) (Homo sapiens (Human))
# protocol-summary: PDK1 kinase assay
# conditions: in vitro kinase assay, His6-PDK1 (aa 52-556), PDKtide, P33-ATP
Each entry below carries its recorded IC50.
readout-label: IC50

1) CC(C)Nc1c(C#N)cnc2ccc(C#CCNC(=O)c3cccn(Cc4ccc(F)c(F)c4)c3=O)cc12 147 nM
2) CC(C)(CO)CNc1ncnc2ccc(C#CCNC(=O)c3cccn(Cc4ccc(F)c(F)c4)c3=O)cc12 124 nM
3) COc1cccc(CN(C)c2ncnc3ccc(C#CCNC(=O)c4cccn(Cc5ccc(F)c(F)c5)c4=O)cc23)c1 63 nM
4) C=C(C)c1cnc2ccc(C#CCNC(=O)c3cncn(Cc4ccc(F)c(F)c4)c3=O)cc2n1 64 nM
